- tgt: recombinant integrase (HIV integrase) (Human immunodeficiency virus type 1 group M subtype B)
- Construct: Strand Transfer Catalyzed by Recombinant Integrase
- assay protocol: HIV integrase assay: strand transfer catalyzed by recombinant integrase
- Assay type: biochemical
- assay context: IC50 (inhibition of strand transfer activity)
reported metric: IC50 (nM)
Report the value in nM with no unit label.

Recorded IC50, per entry:
compound	units label	obs value
CN1C[C@H](O)C(C)(C)Cn2c(c3c(c(O)c2=O)C(=O)N(Cc2ccc(F)c(Cl)c2)CC3)C1=O (single isomer, unassigned) [Ex. 1 - Isomer B-1]	nM	21
CC1CCCN(C)C(=O)c2c3c(c(O)c(=O)n21)C(=O)N(Cc1ccc(F)c(Cl)c1)CC3 (single isomer, unassigned) [Ex. 3 - Diasteromer D-3]	nM	8

The value of IC50 measured for the compound CC1CCCN(C)C(=O)c2c3c(c(O)c(=O)n21)C(=O)N(Cc1ccc(F)c(Cl)c1)CC3 (single isomer, unassigned) [Ex. 3 - Diasteromer B-3] turned out to be 17

---

- tgt: recombinant integrase (HIV integrase) (Human immunodeficiency virus type 1 group M subtype B, UniProt P04585)
- Construct: Strand Transfer Catalyzed by Recombinant Integrase
- assay protocol: HIV integrase assay: strand transfer catalyzed by recombinant integrase
- Assay type: biochemical
- assay context: read-out: IC50 (inhibition of strand transfer activity)
reported metric: pIC50
pIC50 field: float, defined as -log10 of concentration (mol/L).

The value of pIC50 measured for the molecule CN1C[C@@H](O)C(C)(C)Cn2c(c3c(c(O)c2=O)C(=O)N(Cc2ccc(F)c(Cl)c2)CC3)C1=O (single isomer, unassigned) turned out to be 8.52

---

- tgt: recombinant integrase (HIV integrase) (Human immunodeficiency virus type 1 group M subtype B, UniProt P04585)
- Construct: Strand Transfer Catalyzed by Recombinant Integrase
- assay protocol: HIV integrase assay: strand transfer catalyzed by recombinant integrase
- Type: biochemical
- assay context: IC50 (inhibition of strand transfer activity)
Reported pIC50 values follow for various compounds
pIC50 field: float, defined as -log10 of concentration (mol/L).

Recorded pIC50, per entry:
compound	pIC50
CN1C[C@H](O)C(C)(C)Cn2c(c3c(c(O)c2=O)C(=O)N(Cc2ccc(F)c(Cl)c2)CC3)C1=O (single isomer, unassigned) [Ex. 1 - Isomer A-1]	7.85
CC1CCCN(C)C(=O)c2c3c(c(O)c(=O)n21)C(=O)N(Cc1ccc(F)c(Cl)c1)CC3 (single isomer, unassigned) [Ex. 3 - Diasteromer C-3]	8.10

Attention now turns to another entry.
The value of pIC50 measured for the compound CC1CCCN(C)C(=O)c2c3c(c(O)c(=O)n21)C(=O)N(Cc1ccc(F)c(Cl)c1)CC3 (single isomer, unassigned) [Ex. 3 - Diasteromer A-3] turned out to be 7.77

---

- Test system: HIV
- assay protocol: Assay for inhibition of HIV replication (spread assay): acute HIV infection of T-lymphoid cells
- Type: cell-based
Reported IC95 in the presence of 10% FBS values follow for various molecules
Report the value in nM with no unit label.

molecule	units label	IC95 in the presence of 10% FBS
CC1CCCN(C)C(=O)c2c3c(c(O)c(=O)n21)C(=O)N(Cc1ccc(F)c(Cl)c1)CC3 (single isomer, unassigned) [Ex. 3 - Diasteromer C-3]	nM	250
CC1CCCN(C)C(=O)c2c3c(c(O)c(=O)n21)C(=O)N(Cc1ccc(F)c(Cl)c1)CC3 (single isomer, unassigned) [Ex. 3 - Diasteromer B-3]	nM	11
CC1CCCN(C)C(=O)c2c3c(c(O)c(=O)n21)C(=O)N(Cc1ccc(F)c(Cl)c1)CC3 (single isomer, unassigned) [Ex. 3 - Diasteromer D-3]	nM	8
CC1CCCN(C)C(=O)c2c3c(c(O)c(=O)n21)C(=O)N(Cc1ccc(F)c(Cl)c1)CC3 (single isomer, unassigned) [Ex. 3 - Diasteromer A-3]	nM	125

Observed IC95 in the presence of 10% FBS, HIV, CN1C[C@H](O)C(C)(C)Cn2c(c3c(c(O)c2=O)C(=O)N(Cc2ccc(F)c(Cl)c2)CC3)C1=O (single isomer, unassigned) [Ex. 1 - Isomer B-1] : 31

Observed IC95 in the presence of 10% FBS, HIV, CN1C[C@H](O)C(C)(C)Cn2c(c3c(c(O)c2=O)C(=O)N(Cc2ccc(F)c(Cl)c2)CC3)C1=O (single isomer, unassigned) [Ex. 1 - Isomer A-1] : 15

Observed IC95 in the presence of 10% FBS, HIV, CN1C[C@@H](O)C(C)(C)Cn2c(c3c(c(O)c2=O)C(=O)N(Cc2ccc(F)c(Cl)c2)CC3)C1=O (single isomer, unassigned) : 31

Reference source: patent US20100216834A1
